Source listed as patent US20260116991A1.

target: T1, GPC3 on HepG2 cells (human, UniProt P51654 25-554); assay: FACS on HepG2 cells
T1 construct: whole, on cells; also called glypican-3
PARAMETER_MEASURED: EC50

1) hAb006LH3L1d (antibody, human IgG1, V domains shown, Humanized F3.38.7, H3+L1d) VH: EVQLVQSGAEVKKPGSSVKVSCKASGYTFTDYEIHWVRQAPGQGLEWMGAIDPKTGNTAYNQKFMGRVTLTADKSTSTAYMELSSLRSEDTAVYYCTRYFSFAYWGQGTLVTVSS VL: DIVMTQTPLSLPVTPGEPASISCRSSQTFVHSNSNTYLQWYLQKPGQSPQLLIYKVSNRFSGVPDRFSGSGSGTDFTLKISRVEAEDVGVYYCFQGSHVPYTFGQGTKLEIK ... 0.772 nM
2) hAb001H1L1b (antibody, human IgG1, V domains shown, Humanized F2.169.2, H1+L1b) VH: EVQLVESGGGLVQPGGSLRLSCAASGFSFNTNAMNWVRQAPGKGLEWVGRIRSKSNNYATYYADSVKDRFTISRDDSKNSLYLQMNSLKTEDTAVYYCVRDGYYVLFAYWGQGTLVTVSS VL: DIVMTQTPLSLPVTPGEPASISCRFSQSIVNSNANTYLEWFLQKPGQSPQLLIYKVSNRFSGVPDRFSGSGSGTDFTLKISRVEAEDVGVYYCFQGSHVPFTFGQGTKLEIK ... 0.918 nM
3) hAb006LH3L1e (antibody, human IgG1, V domains shown, Humanized F3.38.7, H3+L1e) VH: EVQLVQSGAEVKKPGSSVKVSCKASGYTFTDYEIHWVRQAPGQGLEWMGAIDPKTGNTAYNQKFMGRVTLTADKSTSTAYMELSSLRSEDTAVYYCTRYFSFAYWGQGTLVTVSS VL: DIVMTQTPLSLPVTPGEPASISCRSSQTFVHSNVNTYLQWYLQKPGQSPQLLIYKVSNRFSGVPDRFSGSGSGTDFTLKISRVEAEDVGVYYCFQGSHVPYTFGQGTKLEIK ... 1.01 nM
